So I've got a bunch of compounds here, and I need their pKi values.
Target: UniProt P00921
Sequence (P00921 whole entry): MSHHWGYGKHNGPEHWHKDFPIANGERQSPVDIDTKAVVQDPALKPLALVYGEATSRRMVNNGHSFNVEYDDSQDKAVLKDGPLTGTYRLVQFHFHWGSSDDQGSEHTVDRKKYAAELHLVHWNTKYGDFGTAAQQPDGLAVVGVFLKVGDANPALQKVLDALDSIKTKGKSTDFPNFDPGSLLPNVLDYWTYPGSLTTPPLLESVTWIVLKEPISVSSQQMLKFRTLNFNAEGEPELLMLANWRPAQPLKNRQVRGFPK
Test: Displacement of DNSA from CAII in bovine erythrocytes
In plain terms, pKi is the concentration in mol/L turned into minus its base-10 logarithm.

Request: Supply pKi value. Item: `NS(=O)(=O)c1ccc(C(=O)OC/C=C/COC(=O)c2ccc(S(N)(=O)=O)cc2)cc1`
Response: 8.31

Request: Indicate its recorded pKi; the compound in question is `C=CCOC(=O)c1ccc(S(N)(=O)=O)cc1`
Response: 8.07

Request: Give a short answer stating reported pKi for `NS(=O)(=O)c1ccc(C(=O)OC/C=C/COC(=O)c2ccccc2)cc1` .
Response: 8.33

Request: For the compound `NS(=O)(=O)c1ccc(C(=O)OC/C=C\COC(=O)c2ccc(S(N)(=O)=O)cc2)cc1` , give its measured pKi value.
Response: 8.03

Request: For the compound `NS(=O)(=O)c1ccc(C(=O)OC/C=C/CO)cc1` , report pKi.
Response: 8.28

Request: Supply measured pKi of `C=CCCCOC(=O)c1ccc(S(N)(=O)=O)cc1` in your reply.
Response: 8.11

Request: Quote pKi reported for `NS(=O)(=O)c1ccc(C(=O)OC/C=C\CO)cc1` please.
Response: 8.04
